# MEASUREMENT_TARGET: UniProt:P0DTD1
# TEST_CONTEXT: 20.0 µM
Form field: inhibition (one value per entry).
Give your result in % as a bare value.

// worked examples, inhibition included
{"MOLECULE": "NS(=O)(=O)c1ccc(N2CCC(c3ccncc3)CC2)cc1", "MEASUREMENT_KIND": "inhibition", "REPORTED_VALUE": 1.05}
{"MOLECULE": "C=CC(=O)N1CCN(Cc2cccc3ccccc23)CC1", "MEASUREMENT_KIND": "inhibition", "REPORTED_VALUE": 0}
{"MOLECULE": "Cc1cccc(NC(=O)C(C#N)C(=O)C2CCC2)c1 (stereo unspecified)", "MEASUREMENT_KIND": "inhibition", "REPORTED_VALUE": 0.951}
{"MOLECULE": "O=C(NCc1cccnn1)NC(Cc1ccccc1)c1cccs1 (stereo unspecified)", "MEASUREMENT_KIND": "inhibition", "REPORTED_VALUE": 0}
{"MOLECULE": "C=CC(=O)N1CCN(Cc2cc(Cl)cc3ccccc23)CC1", "MEASUREMENT_KIND": "inhibition", "REPORTED_VALUE": 0}

Using the record for Cc1cnc(CC(=O)Nc2cccnc2)o1 , report its inhibition.
0

These entries and their values trace back to the COVID Moonshot data (paper PMC11187573).
